// values below are reported EC50
assayed target: T1, Full-length β3 peptide (β3 cytoplasmic tail) (UniProt P05106 742-788, limits assumed)
T1 construct: domain: cytoplasmic domain; also called wild-type β3
T1 peptide (looked up): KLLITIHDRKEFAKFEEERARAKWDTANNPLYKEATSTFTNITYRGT
experiment: αIIb peptide titrated with fixed saturating β3 peptide; inhibition of antibody binding to coated αIIbβ3 (ELISA), EC50 at B/B0=0.5
quantity name: EC50 (nM)

                                     binder  result
0  KVGFFKRNRPPLEEDD [αIIb peptide KVGFFKRNRPPLEEDD]       5
1        NRPPLEEDD [αIIb peptide NRPPLEEDD]      20
2  KVGFFKRNRPPLEEDDEEGQ [αIIb peptide KVGFFKRNRPPLEEDDEEGQ]       3
3  KRNRPPLEEDDEEGQ [αIIb peptide KRNRPPLEEDDEEGQ]       6
4       RPPLEED [αIIb heptapeptide RPPLEED]      30
5  NRPPLEEDDEEGQ [αIIb peptide NRPPLEEDDEEGQ]       8
